Target: UniProt:Q86W56
Sequence (Q86W56 whole entry): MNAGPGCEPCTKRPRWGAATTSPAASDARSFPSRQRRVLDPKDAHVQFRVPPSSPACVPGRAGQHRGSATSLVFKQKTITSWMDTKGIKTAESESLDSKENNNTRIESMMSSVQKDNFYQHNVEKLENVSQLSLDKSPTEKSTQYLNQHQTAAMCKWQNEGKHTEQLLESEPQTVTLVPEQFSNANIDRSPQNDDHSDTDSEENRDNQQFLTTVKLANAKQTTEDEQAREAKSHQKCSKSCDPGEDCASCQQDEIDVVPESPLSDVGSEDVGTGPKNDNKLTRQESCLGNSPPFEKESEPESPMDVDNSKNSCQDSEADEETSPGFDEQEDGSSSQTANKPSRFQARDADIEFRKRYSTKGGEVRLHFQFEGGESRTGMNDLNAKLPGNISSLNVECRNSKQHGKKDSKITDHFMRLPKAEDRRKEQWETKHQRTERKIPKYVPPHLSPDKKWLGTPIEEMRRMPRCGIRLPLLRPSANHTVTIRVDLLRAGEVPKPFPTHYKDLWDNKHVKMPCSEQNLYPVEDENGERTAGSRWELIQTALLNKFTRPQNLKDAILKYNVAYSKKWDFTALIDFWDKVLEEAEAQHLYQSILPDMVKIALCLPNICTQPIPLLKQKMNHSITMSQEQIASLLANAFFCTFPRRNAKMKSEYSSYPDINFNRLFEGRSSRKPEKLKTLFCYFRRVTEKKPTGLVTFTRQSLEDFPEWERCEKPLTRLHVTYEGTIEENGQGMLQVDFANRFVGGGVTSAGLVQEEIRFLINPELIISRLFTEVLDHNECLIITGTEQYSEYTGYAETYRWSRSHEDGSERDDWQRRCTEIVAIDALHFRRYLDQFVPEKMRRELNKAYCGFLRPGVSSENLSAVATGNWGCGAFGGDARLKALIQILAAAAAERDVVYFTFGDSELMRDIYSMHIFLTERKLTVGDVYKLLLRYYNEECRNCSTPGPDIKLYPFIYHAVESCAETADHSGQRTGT
Assay: Biochemical assay (PARG, TFMU-ADPr substrate)
Conditions: PARG, TFMU-ADPr substrate
Please use the following IC50 ranges when assigning a class: A = under 3 nM, B = from 3 nM up to 20 nM, C = 20 nM and over

>>> assigned_category("CC1(NS(=O)(=O)c2cc(N3CCN4C(=O)NCC4C3)c3cnc(-c4nnc(C(F)(F)F)s4)n3c2)COC1 (centres unmarked) [Example 394]")
"B"
>>> assigned_category("CC1(NS(=O)(=O)c2cc(N3CCN(C(=O)C4(C)CNC4)CC3)c3cnc(-c4nnc(C(F)(F)F)s4)n3c2)CC1 [Example 313]")
"A"
>>> assigned_category("CC(C)C(=O)N1CCN(c2cc(S(=O)(=O)NC3(C#N)CC3)cc3c(-c4nnc(C(F)F)s4)cnn23)CC1 [Example 27]")
"B"
>>> assigned_category("CC(C)C(=O)N1CCN(c2cc(S(=O)(=O)NC3(C)COC3)cn3c(-c4nnc(C(F)(F)F)s4)ncc23)C[C@H]1C [Example 174]")
"B"
>>> assigned_category("N#CC1(NS(=O)(=O)c2cc(N3CCN(C(=O)N4CCCC4)CC3)c3cnc(-c4nnc(C(F)(F)F)s4)n3c2)CC1 [Example 229]")
"B"
>>> assigned_category("N#CC1(NS(=O)(=O)c2cc(N3CC4COCC4C3)c3cnc(-c4nnc(C(F)F)s4)n3c2)CC1 (centres unmarked) [Example 79]")
"C"
>>> assigned_category("N#CC1(NS(=O)(=O)c2cc(N3CCNCC3)c3cnc(-c4nnc(C(F)(F)F)s4)n3c2)CC1 [Example 233]")
"C"
>>> assigned_category("CC(C)C(=O)N1CCN(c2cc(S(=O)(=O)NC3(CF)CC3)cn3c(-c4nnc(C(F)F)s4)ncc23)CC1 [Example 31]")
"A"
>>> assigned_category("C=CC(=O)N1CCC(c2cnc3c(N4CCN(C(=O)C(C)C)CC4)cc(S(=O)(=O)NC4(C#N)CC4)cn23)C1 (centres unmarked) [Example 19]")
"C"
>>> assigned_category("COC[C@@H]1CN(c2cc(S(=O)(=O)NC3(C#N)CC3)cn3c(-c4nnc(C(F)F)s4)ncc23)CCN1C(=O)C(C)C [Example 223]")
"A"
>>> assigned_category("COC[C@H]1CN(c2cc(S(=O)(=O)NC3(C)COC3)cn3c(-c4nnc(C(F)F)s4)ncc23)C[C@H](C)N1 [Example 404]")
"A"
>>> assigned_category("N#CC1(NS(=O)(=O)c2cc(C3=CCN(C(=O)C4(O)CC4)CC3)c3cnc(-c4nnc(C(F)(F)F)s4)n3c2)CC1 [Example 371]")
"B"
>>> assigned_category("N#CC1(NS(=O)(=O)c2cc(N3CCN(C(=O)CCC(=O)O)CC3)c3cnc(-c4nnc(C(F)(F)F)s4)n3c2)CC1 [Example 253]")
"C"
